Origin of measurements: ChEMBL document CHEMBL5058577

Test system: Fibroblast
Assay: Multiplex assay against human fibroblast
Type: toxicity, cell-based
Conditions: 24 h, 10 µM, compound concentration 10 uM, replicate 1
I would appreciate it if you labelled entries Criterion met when Population Tubulin-Different-Phenotype (%) is 40% or higher, otherwise Criterion not met.

[[record]]
molecule = "CN1CCC(C(=O)c2cccc(NC(=O)c3c(F)cc(F)cc3F)n2)CC1"
study_system = "Fibroblast"
category_label = "Criterion not met"

[[record]]
molecule = "Cc1cc(-c2ccc3c(c2)CC[C@H]3N2CC3(CCN(C(=O)Cc4cn5cc(C)sc5n4)CC3)C2)ncn1"
study_system = "Fibroblast"
category_label = "Criterion not met"

[[record]]
molecule = "O=C(NCCNCC(O)COc1ccc(O)cc1)N1CCOCC1.O=C(NCCNCC(O)COc1ccc(O)cc1)N1CCOCC1.O=C(O)/C=C/C(=O)O (stereo not drawn) [XAMOTEROL FUMARATE]"
study_system = "Fibroblast"
category_label = "Criterion not met"

[[record]]
molecule = "COc1ccc2c(c1OCc1ccccc1)C[C@@H](C(=O)O)N(C(=O)C(c1ccccc1)c1ccccc1)C2"
study_system = "Fibroblast"
category_label = "Criterion not met"

[[record]]
molecule = "CCc1nn2c(C)cc(C)nc2c1Cc1ccc(-c2nnc(C3CCNCC3)o2)cc1"
study_system = "Fibroblast"
category_label = "Criterion met"

[[record]]
molecule = "CN1CCN2c3ccccc3Cc3ccccc3C2C1.Cl (stereo not drawn) [MIANSERIN HYDROCHLORIDE]"
study_system = "Fibroblast"
category_label = "Criterion not met"

[[record]]
molecule = "COc1cc2nc(N3CCN(C(=O)c4ccco4)CC3)nc(N)c2cc1OC.Cl [PRAZOSIN HYDROCHLORIDE]"
study_system = "Fibroblast"
category_label = "Criterion met"

[[record]]
molecule = "COC(c1ccccc1)(c1ccccc1)[C@H](Oc1nc(C)cc(C)n1)C(=O)O"
study_system = "Fibroblast"
category_label = "Criterion not met"

[[record]]
molecule = "Cc1cc(O)c(-c2ccc([C@@H](C)CN(C)C)cc2)c2c1[nH]c(=O)c1sccc12"
study_system = "Fibroblast"
category_label = "Criterion met"

[[record]]
molecule = "COc1ccc2[nH]c(I)c(CCNC(C)=O)c2c1"
study_system = "Fibroblast"
category_label = "Criterion not met"

[[record]]
molecule = "C=CCN1C[C@H](C(=O)N(CCCN(C)C)C(=O)NCC)C[C@@H]2c3cccc4[nH]cc(c34)C[C@H]21"
study_system = "Fibroblast"
category_label = "Criterion met"

[[record]]
molecule = "OCCCNc1cc(-c2ccnc(Nc3cccc(Cl)c3)n2)ccn1"
study_system = "Fibroblast"
category_label = "Criterion met"

[[record]]
molecule = "O=C(O)CCC/C=C\\CC1C(O)CC(O)C1/C=C/C(O)COc1cccc(Cl)c1 (stereo not drawn)"
study_system = "Fibroblast"
category_label = "Criterion not met"

[[record]]
molecule = "O=C(Nc1cc(-c2ccccc2)nn1-c1ccccc1F)c1ccc([N+](=O)[O-])cc1"
study_system = "Fibroblast"
category_label = "Criterion met"

[[record]]
molecule = "CSc1nc(NC2CCCC2)c([N+](=O)[O-])c(NC2CCCC2)n1"
study_system = "Fibroblast"
category_label = "Criterion not met"

[[record]]
molecule = "C[C@H](NC(=O)CNC(=O)c1cccc(Cl)c1)c1ccccc1"
study_system = "Fibroblast"
category_label = "Criterion met"

[[record]]
molecule = "Nc1nc(CC(=O)Nc2ccc(CCNC[C@H](O)c3ccccc3)cc2)cs1"
study_system = "Fibroblast"
category_label = "Criterion not met"

[[record]]
molecule = "Cl.Cl.OCCOCCN1CCN(C(c2ccccc2)c2ccc(Cl)cc2)CC1 (stereo not drawn) [HYDROXYZINE HYDROCHLORIDE]"
study_system = "Fibroblast"
category_label = "Criterion met"

[[record]]
molecule = "CCC(=O)OCC(=O)[C@@]1(OC(=O)CC)[C@@H](C)C[C@H]2[C@@H]3CCC4=CC(=O)C=C[C@]4(C)[C@@]3(Cl)[C@@H](O)C[C@@]21C [BECLOMETHASONE DIPROPIONATE]"
study_system = "Fibroblast"
category_label = "Criterion met"

[[record]]
molecule = "COc1cc(Nc2ncc3c(n2)-c2ccc(Cl)cc2C(c2c(F)cccc2OC)=NC3)ccc1C(=O)O"
study_system = "Fibroblast"
category_label = "Criterion met"

[[record]]
molecule = "CN1CCN(c2ccc(Nc3c4ccccc4nc4ccccc34)cc2)CC1.Cl.Cl.O"
study_system = "Fibroblast"
category_label = "Criterion met"

[[record]]
molecule = "CN1C[C@H](C(=O)N[C@]2(C)O[C@@]3(O)[C@@H]4CCCN4C(=O)[C@H](Cc4ccccc4)N3C2=O)C[C@@H]2c3cccc4[nH]cc(c34)C[C@H]21.CS(=O)(=O)O [DIHYDROERGOTAMINE MESYLATE]"
study_system = "Fibroblast"
category_label = "Criterion not met"

[[record]]
molecule = "COc1cc2nc(N3CCN(C(=O)COc4c(OC)cccc4C(C)C)CC3)nc(N)c2cc1OC.Cl.Cl"
study_system = "Fibroblast"
category_label = "Criterion not met"

[[record]]
molecule = "O=c1nc2[nH]c3ccccc3nc-2c(=O)[nH]1"
study_system = "Fibroblast"
category_label = "Criterion not met"

[[record]]
molecule = "CC(C)C[C@H](CO)Nc1nc(S[C@@H](C)c2ccccc2)nc2nc(N)sc12"
study_system = "Fibroblast"
category_label = "Criterion not met"

[[record]]
molecule = "CCCCC[C@H](O)/C=C/[C@H]1[C@H](O)CC(=O)[C@@H]1CCCCCCC(=O)O"
study_system = "Fibroblast"
category_label = "Criterion not met"

[[record]]
molecule = "N[C@](CC1c2ccccc2Oc2ccccc21)(C(=O)O)[C@H]1C[C@@H]1C(=O)O"
study_system = "Fibroblast"
category_label = "Criterion not met"

[[record]]
molecule = "Cc1cc(NC(=O)NCCN2CCC(O)(Cc3ccccc3)CC2)c2ccccc2n1"
study_system = "Fibroblast"
category_label = "Criterion not met"

[[record]]
molecule = "C[C@@H]1CC(=O)Nc2cccc(-c3ccc4c(c3)c(-c3cnn(C)c3)nn4C)c2N1"
study_system = "Fibroblast"
category_label = "Criterion met"

[[record]]
molecule = "CC(C)(O)C(=O)N1CCN(c2ccc(C(F)(F)F)c(C3=C(c4c[nH]c5ccccc45)C(=O)NC3=O)c2)CC1"
study_system = "Fibroblast"
category_label = "Criterion met"

